Recorded log10 of TGI by entry
tested on: SF-539 CNS; test: NCI tumour cell line growth inhibition, 48 h
result-type: log10 of TGI (log10 of the value in µM)

| compound | study-target | result-type | obs-value |
| --- | --- | --- | --- |
| CN(C)CCC(=O)N1C/C(=C/c2ccccc2)C(=O)/C(=C\c2ccccc2)C1 | SF-539 CNS | log10 of TGI | 1.08 |
| CC1=C(CCCNS(C)(=O)=O)C2=C(C)C3(CC3)[C@@](C)(O)C(=O)C2=C1 | SF-539 CNS | log10 of TGI | 0.51 |
| Cn1cc(-c2cnc3ccc(NC(=O)Nc4ccc(F)c(Br)c4)cc3n2)cn1 | SF-539 CNS | log10 of TGI | 0.53 |
| O=C1CNCCCN2CCN(CCCNCC(=O)Nc3ccc(cc3)S(=O)(=O)c3ccc(cc3)NC(=O)CNCCCN3CCN(CCCNCC(=O)Nc4ccc(cc4)S(=O)(=O)c4ccc(cc4)N1)CC3)CC2 | SF-539 CNS | log10 of TGI | 1.65 |
| COc1ccc(CNc2cc(OC)c(OC)c(OC)c2)cc1 | SF-539 CNS | log10 of TGI | 1.55 |
| O=C1/C(=C/c2ccc(Cl)cc2Cl)N=C(c2ccccc2)N1Cc1ccco1 | SF-539 CNS | log10 of TGI | 1.75 |
| Cc1c(C(=O)N/N=C/c2ccc(Cl)cc2)nnn1-c1ccnc2c(C(F)(F)F)cccc12 | SF-539 CNS | log10 of TGI | 1.41 |
| CCOC(=O)C1Cc2[nH]c3ccccc3c2C(C)C1C (stereo not given) | SF-539 CNS | log10 of TGI | 1.50 |
| C=C(C(=O)C(=O)Oc1ccc(Cl)cc1)C(=O)c1ccc(C)cc1 | SF-539 CNS | log10 of TGI | 1.54 |

###

Reported GI50 values for a set of molecules
tested on: OVCAR-5 ovarian; test: NCI tumour cell line growth inhibition, 48 h
result-type: GI50

| molecule | study-target | obs-value |
| --- | --- | --- |
| CCc1c(Oc2ccc(C(C)=O)cc2)c2ccccc2[nH]c1=O | OVCAR-5 ovarian | 31.8 µM |
| COc1ccc(C2=NN(C(=O)c3cc(OC)c(OC)c(OC)c3)C(c3ccc(C#N)cc3)C2)cc1OC (centres undefined) | OVCAR-5 ovarian | 5.24 µM |
| CC1=C(C(=O)Nc2ccc3[nH]ncc3c2)C(c2ccc3ccccc3c2)CC(=O)N1 (centres undefined) | OVCAR-5 ovarian | 20.5 µM |
| NCC(=O)NS(=O)(=O)OC[C@H]1O[C@@H](n2cnc3c(N)ncnc32)[C@H](O)[C@@H]1O | OVCAR-5 ovarian | 0.75 µM |
| O=c1oc2ccc(F)cc2c(=O)n1-c1ccc(F)cc1F | OVCAR-5 ovarian | 3.46 µM |
| Cc1c(C(=O)N/N=C/c2ccc(Cl)cc2)nnn1-c1ccnc2c(C(F)(F)F)cccc12 | OVCAR-5 ovarian | 15.6 µM |
| COc1cc(OC)cc(-c2ccc(-c3ccc(C(=N)N)o3)o2)c1 | OVCAR-5 ovarian | 2.34 µM |
| CC(C)CC(=O)[O-].CC(C)CC(=O)[O-].N.N.N.N.[Co+3].[O-][Cl+3]([O-])([O-])[O-] | OVCAR-5 ovarian | > 100 µM |
| CCNCCNc1cc(-c2ccc(C(=O)OC)cc2)c(C#N)c2nc3ccccc3n12 | OVCAR-5 ovarian | 3.08 µM |

###

system: KM20L2 colon; assay: NCI tumour cell line growth inhibition, 48 h
Collected TGI values appear next to each entry.

| compound | TGI |
| --- | --- |
| c1ccc(C2C3=C(Nc4ncnn42)c2ccccc2C3)cc1 (stereo not drawn) | 24.5 µM |
| CC1=C(O)C(=O)[C@@H]2O[C@@H]2C1=O | 49.4 µM |
| CC1OC(n2cc(F)c(=O)[nH]c2=O)CCC1O (stereo not drawn) | > 100 µM |
| CCOC(=O)NC(=O)c1cn(C2OC(COC(=O)CCCCCCCCC(=O)OCC3OC(n4cc(C(=O)NC(=O)OCC)c(=O)[nH]c4=O)C(O)C3O)C(O)C2O)c(=O)[nH]c1=O (stereo not drawn) | > 100 µM |
| CC1(Cl)C(=O)NC(=O)N(C2CC(N=[N+]=[N-])C(CO)O2)C1N=[N+]=[N-] (stereo not drawn) | > 100 µM |
| CCCCNC1=C(C(=O)OCC)C(=O)CO1 | > 100 µM |
| O=C1C(Cl)=C(N2CCN(C3=C(Cl)C(=O)c4ccccc4C3=O)CC2)C(=O)c2ccccc21 | 14 µM |
| C/C(CCOC1CCCCO1)=C(\C)[Si](C)(C)C (stereo not drawn) | > 100 µM |

###

test system: SF-268 CNS; assay: NCI tumour cell line growth inhibition, 48 h
result-type: TGI (µM)

| molecule | study-target | result-type | unit-text | operator | obs-value |
| --- | --- | --- | --- | --- | --- |
| CCCc1cc(=O)c2c(C)c3[nH]c4ccc(Cl)cc4c3c(C)c2[nH]1 | SF-268 CNS | TGI | µM | = | 24.1 |
| Cc1nnc2n1N=C(c1cc(F)c(Cl)cc1Cl)/C(=C/c1ccc(Cl)cc1)S2 | SF-268 CNS | TGI | µM | > | 100 |
| COc1ccc(C2Oc3c(cc(O)c(OC)c3C)[C@@H]2C)cc1OC (stereo not given in full) | SF-268 CNS | TGI | µM | > | 100 |
| N#CSCC1CC(O)(c2ccccc2)C(c2ccccc2)C(c2ccc(Cl)cc2)O1 (stereo not given) | SF-268 CNS | TGI | µM | = | 4.74 |
| CN(C)CCC(=O)N1C/C(=C/c2ccccc2)C(=O)/C(=C\c2ccccc2)C1 | SF-268 CNS | TGI | µM | = | 9.22 |
| CCCCC(=O)OCC1OC(n2cnc3c(=S)nc[nH]c32)C(OC(=O)CCCC)C1OC(=O)CCCC (stereo not given) | SF-268 CNS | TGI | µM | > | 100 |
| c1ccc2c(c1)OC(N1CCCC1)c1cnc(N3CCCC3)nc1-2 (stereo not given) | SF-268 CNS | TGI | µM | > | 100 |
| Cc1ccc(C)c(NC(=O)CC/C(=N\NC(=O)C(=O)NN)C(C)C(=O)c2ccc(O)cc2)c1 (stereo not given) | SF-268 CNS | TGI | µM | > | 100 |
| CCN(CC)c1c(C(=O)/C=C/c2ccccc2)c(-c2ccccc2)nn(C)c1=O | SF-268 CNS | TGI | µM | > | 100 |
| CC1=C(CCCNS(C)(=O)=O)C2=C(C)C3(CC3)[C@@](C)(O)C(=O)C2=C1 | SF-268 CNS | TGI | µM | = | 14.2 |

###

system: SF-295 CNS; assay: NCI tumour cell line growth inhibition, 48 h
result-type: TGI

| compound | obs-value |
| --- | --- |
| CC1=C(C(=O)Nc2ccc([N+](=O)[O-])cc2)C(c2ccc(N(C)C)cc2)C(C(=O)Nc2ccc([N+](=O)[O-])cc2)=C(C)N1 | 74.6 µM |
| O=C(O)c1cc2c(cc1CC(Cc1ccc3c(c1)CCC3)C(=O)O)CCC2 (stereo not drawn) | > 100 µM |
| O=C(/C=C/c1ccc(O)c([N+](=O)[O-])c1)CC(=O)/C=C/c1ccc(O)c([N+](=O)[O-])c1 | > 100 µM |
| O=C1/C(=C/c2ccccc2)N=C(c2ccccc2)N1n1c(-c2ccccc2)nc2ccccc2c1=O | > 100 µM |
| C[N+]1=C2[B-](C(C)(C)C)=[N+](C(C)(C)C)[B-]2(C(C)(C)C)[N+](C)=C2[B-](C(C)(C)C)=[N+](C(C)(C)C)[B-]21C(C)(C)C (stereo not drawn) | > 100 µM |
| CC(C)CC(=O)[O-].CC(C)CC(=O)[O-].N.N.N.N.[Co+3].[O-][Cl+3]([O-])([O-])[O-] | > 100 µM |
| c1ccc2c(c1)OC(N1CCCC1)c1cnc(N3CCCC3)nc1-2 (stereo not drawn) | 82.1 µM |
| CN(C)CCC(=O)N1C/C(=C/c2ccccc2)C(=O)/C(=C\c2ccccc2)C1 | 8.55 µM |

###

test system: SF-295 CNS; test: NCI tumour cell line growth inhibition, 48 h
Each record here notes measured TGI.

| compound | TGI |
| --- | --- |
| O=C(Nc1ccc(Br)cc1)c1c(-c2ccccc2)c2ccc(O)cc2oc1=O | > 10 µM |
| CC1(O)CC(C(F)(F)F)(C(F)(F)F)OC1=O (stereo not given) | > 10 µM |
| CC(C)(N=NC(C)(C)C(=O)NCCO)C(=O)NCCO | > 100 µM |
| Cc1ccc([C@@H]2[C@@H](C(=O)c3ccccn3)[C@H](c3ccc(C)cc3)C[C@](O)(c3ccccn3)[C@H]2C(=O)c2ccccn2)cc1 | > 100 µM |
| N#CC(C(=N/O)/C(=N/O)C(C#N)c1ccc(Cl)cc1)c1ccc(Cl)cc1 (stereo not given) | > 100 µM |
